# TGT: T1, Mcl-1, Q07820
# T1 chain: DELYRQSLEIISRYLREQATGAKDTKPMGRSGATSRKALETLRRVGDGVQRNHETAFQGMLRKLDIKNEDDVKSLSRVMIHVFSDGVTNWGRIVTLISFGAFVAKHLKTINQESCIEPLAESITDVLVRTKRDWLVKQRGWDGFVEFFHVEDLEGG
# EXPERIMENT: peptide SPOT array, c-Myc-tagged receptor at 1 uM or 100 nM, anti-c-Myc-Cy3
Param label: returns rule met when SPOT signal as a fraction of Bim BH3's signal on the same receptor and array < 0.06, returns rule not met otherwise, including exact equality.

Problem: Lab note: SPOT signal as a fraction of Bim BH3's signal on the same receptor and array threshold 0.06. Does this binder come in strictly under it? PEDLQDVGWFLHKLSQQILKKEKEKK [TLR5]
Result: rule not met

Problem: Would you mind doing PPDAHVLGKALEAAGQDFSLDLRSTG [CIITA] as well?
Result: rule met

Problem: Would you mind doing AFGLGDLPNLDGLVGDQLGDTERKRR [ADAMTS14] as well?
Result: rule met

Problem: Would you mind doing CVQSTKPSLMIQKAAIQALRKMEPKD [APOB] as well?
Result: rule not met

Problem: Would you mind doing EEIIHKLAMQLRHIGDNIDHRMVRED [PXT1] as well?
Result: rule not met

Problem: Would you mind doing ERLKGQLCDVLLIVGDQKFRAHKNVL [ZNF295] as well?
Result: rule not met
